# System: Haemophilus parainfluenzae
# Run description: MIC by agar dilution, maxillary sinus isolates
# Format: cell-based
# Assay context: 24 h, H. parainfluenzae (n = 10)
Please provide measured MIC for the entries that follow.

(Q) // lookup MIC for Cc1c(F)c(N2CCNC(C)C2)cc2c1c(=O)c(C(=O)O)cn2C1CC1 (centres unmarked)
(A) 0.02 to 0.12 µg/mL

(Q) Would you mind telling me what MIC value was observed for C[C@H]1COc2c(N3CCN(C)CC3)c(F)cc3c(=O)c(C(=O)O)cn1c23 ?
(A) 0.03 to 0.25 µg/mL

(Q) Sample CC1(C)S[C@@H]2[C@H](NC(=O)[C@H](N)c3ccc(O)cc3)C(=O)N2[C@H]1C(=O)O — what was its MIC?
(A) 0.03 to 1 µg/mL

(Q) Item N[C@@H]1[C@H]2CN(c3nc4c(cc3F)c(=O)c(C(=O)O)cn4-c3ccc(F)cc3F)C[C@@H]12 has what recorded MIC?
(A) 0.02 to 0.12 µg/mL

(Q) // lookup MIC for CO/N=C1\CN(c2nc3c(cc2F)c(=O)c(C(=O)O)cn3C2CC2)CC1CN (racemic)
(A) 0.02 to 0.12 µg/mL

---

# Tested on: Streptococcus pneumoniae
# Run description: MIC by agar dilution, maxillary sinus isolates
# Assay type: cell-based
# Assay context: Streptococcus pneumoniae, 24 h; S. pneumoniae (n = 85)
Measurement label: MIC

(Q) // lookup MIC for CC1COc2c(N3CCN(C)CC3)c(F)cc3c(=O)c(C(=O)O)cn1c23 (stereo not shown)
(A) 0.25 to 4 µg/mL

(Q) Need MIC of C[C@@H]1CN(c2c(F)c(N)c3c(=O)c(C(=O)O)cn(C4CC4)c3c2F)C[C@H](C)N1 , thanks.
(A) 0.03 to 0.5 µg/mL

(Q) Bench note: what MIC did CC1(C)S[C@@H]2[C@H](NC(=O)[C@H](N)c3ccc(O)cc3)C(=O)N2[C@H]1C(=O)O show?
(A) 0.02 to 1 µg/mL

(Q) Can you share its MIC? I mean this compound: N[C@@H]1[C@H]2CN(c3nc4c(cc3F)c(=O)c(C(=O)O)cn4-c3ccc(F)cc3F)C[C@@H]12
(A) 0.02 to 0.12 µg/mL

(Q) Param item = CO/N=C1\CN(c2nc3c(cc2F)c(=O)c(C(=O)O)cn3C2CC2)CC1CN (racemic) ; retrieve measured MIC.
(A) 0.02 to 0.06 µg/mL

(Q) Item C[C@H]1COc2c(N3CCN(C)CC3)c(F)cc3c(=O)c(C(=O)O)cn1c23 has what recorded MIC?
(A) 0.12 to 2 µg/mL

(Q) Recorded MIC of Cc1c(F)c(N2CCNC(C)C2)cc2c1c(=O)c(C(=O)O)cn2C1CC1 (stereo not shown) , please.
(A) 0.03 to 0.5 µg/mL

---

# Tested on: Streptococcus pneumoniae
# Run description: MIC by agar dilution, maxillary sinus isolates
# Assay type: cell-based
# Assay context: S. pneumoniae (n = 85)
I'd appreciate it if you could supply MIC 90% values for the items below.
Response body: numeric value in µg/mL, unit text excluded.

(Q) What value of MIC 90% has been reported for the following molecule? C[C@H]1COc2c(N3CCN(C)CC3)c(F)cc3c(=O)c(C(=O)O)cn1c23
(A) 1

(Q) MIC 90% for Cc1c(F)c(N2CCNC(C)C2)cc2c1c(=O)c(C(=O)O)cn2C1CC1 (stereo not shown) ?
(A) 0.25

(Q) Item CC1COc2c(N3CCN(C)CC3)c(F)cc3c(=O)c(C(=O)O)cn1c23 (stereo not shown) has what recorded MIC 90%?
(A) 2

(Q) Field request: MIC 90% | item: C[C@@H]1CN(c2c(F)c(N)c3c(=O)c(C(=O)O)cn(C4CC4)c3c2F)C[C@H](C)N1
(A) 0.5

---

# Tested on: Staphylococcus aureus
# Run description: MIC by agar dilution, maxillary sinus isolates
# Type: cell-based
# Assay context: S. aureus (n = 31)
Please respond with reported MIC Range for every item in the list.

(Q) Using the record for CC1(C)S[C@@H]2[C@H](NC(=O)[C@H](N)c3ccc(O)cc3)C(=O)N2[C@H]1C(=O)O , report its MIC Range.
(A) 0.06 to 2 µg/mL

(Q) Endpoint output: MIC Range of CO/N=C1\CN(c2nc3c(cc2F)c(=O)c(C(=O)O)cn3C2CC2)CC1CN (racemic) . Value?
(A) 0.03 to 1 µg/mL

(Q) Quick check: MIC Range of C[C@H]1COc2c(N3CCN(C)CC3)c(F)cc3c(=O)c(C(=O)O)cn1c23 ?
(A) 0.12 to 0.5 µg/mL

(Q) Reported MIC Range, compound CC1COc2c(N3CCN(C)CC3)c(F)cc3c(=O)c(C(=O)O)cn1c23 (stereo not drawn) : ____
(A) 0.25 to 1 µg/mL

(Q) Return reported MIC Range; argument: Cc1c(F)c(N2CCNC(C)C2)cc2c1c(=O)c(C(=O)O)cn2C1CC1 (stereo not drawn)
(A) 0.06 to 0.25 µg/mL

(Q) // MIC Range lookup, key: COc1c(N2C[C@@H]3CCCN[C@@H]3C2)c(F)cc2c(=O)c(C(=O)O)cn(C3CC3)c12
(A) 0.03 to 0.12 µg/mL
